Recorded values, source PubChem BioAssay AID1159580.

assay_text: chemical genetic growth profiling, strain panel (AID 1159580);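 further: tested at 20 µM; growth read once vehicle control cultures reached saturation at 30 °C; 1 = growth at the plate median or of vehicle wells; lower values mean less growth of the strain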
particulars: S. cerevisiae deletion strains, growth OD, locus YNL183C, strain NPR1
The whole screen tested about 5,500 compounds, of which about 2,000 (36%) were called active. Another 18% or so got no clear call; they are omitted. No stated cut-off is given here; in the data, active means normalized growth mostly below about 0.91 (no sharp cut-off); inconclusive means no clear call, values can overlap the other calls; inactive means mostly above about 0.92. This is one part of the list.
Outcome codes: label 1 (active), label 0 (inactive)

compound: COc1c(C)c2c(c(O)c1C/C=C(\C)CCC(=O)O)C(=O)OC2
label_value: label 1
--
compound: NC(C(=O)O)C(O)C(=O)O (configuration not stated)
label_value: label 0
--
compound: O=C(O)C(O)C(O)C(=O)O (configuration not stated)
label_value: label 0
--
compound: Clc1ccc(COC(Cn2ccnc2)c2ccc(Cl)cc2Cl)cc1 (configuration not stated)
label_value: label 1
--
compound: O=C(O)[C@@H](S)[C@@H](S)C(=O)O
label_value: label 1
--
compound: CC1=CC(=O)N(c2ccc(F)c(Cl)c2)C1=O
label_value: label 1
--
compound: O=C(O)C(O)C(O)C(O)C(O)C(=O)O (configuration not stated)
label_value: label 0
